Would you mind telling me the reported growth inhibition of each entry?
test: NCI Yeast Anticancer Drug Screen. Data for the cln2 rad14 strain (AID 165);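 note: 0% = growth equal to vehicle treated cultures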; settings: S. cerevisiae cln2 rad14 strain, at 50.0 µM, active compounds read high
The panel holds about 79,000 compounds, 15% with a hit somewhere; the sample as a whole holds those more often.
Give bare numbers, in %.

- C[N+](C)(C)CCC(=O)c1ccco1: 96
- CC(C)C(=O)NNc1ccccc1: 93.2
- C[n+]1c(/C=C/c2ccc([N+](=O)[O-])cc2)ccc2ccccc21: 82.7
- COC(=O)c1cc2c(c(C(=O)OC)c1O)C(=O)C=CC2=O: 56.3
- CCCCCCCCCCCCCC(=O)OCC(O)CO (stereo unspecified): 75.3

In the following, a different compound is considered.
Give its growth inhibition value. Item: Nc1nc(N)c2c(ccc3c2ccn3Cc2cccc([N+](=O)[O-])c2)n1 57.5

----------
experiment: NCI Yeast Anticancer Drug Screen. Data for the mec2-1 strain (AID 157); details: S. cerevisiae mec2-1 strain, at 50.0 µM, active compounds read high
Compounds without any hit were thinned out: in the full panel of roughly 79,000, 15% have a hit.
measuredParameter: growth inhibition (%)
Numbers only, in %.

* COc1ccc(/C=N/Nc2ccccc2)cc1 | 99
* CCCCCCC(O)C(CO)CCCCC (stereo unspecified) | 98
* CN(Cc1cnc2nc(N)nc(N)c2n1)c1ccc(C(=O)NC(CCC(=O)O)C(=O)O)cc1 (stereo unspecified) | 88
* O=C1C=CC(=O)N1c1cccc(F)c1 | 99.8
* O=[N+]([O-])c1ccc(NSc2ccccc2)cc1 | 92.5

Give its growth inhibition value. Item: CCCCCCCCSCc1ccc(N)cc1 91.4

----------
assay: NCI Yeast Anticancer Drug Screen. Data for the bub3 strain (AID 167); settings: S. cerevisiae bub3 mutant strain, at 50.0 µM (retest, dose inferred, filed as 5.0), active compounds read high
Compounds without any hit were thinned out: in the full panel of roughly 79,000, 15% have a hit. Active and inactive are the calls of the source. Cut-off read from the data, not from the text of the source: active = growth inhibition above about 70%; inactive = the rest.
measuredParameter: growth inhibition

Please review the entries below; each comes with its answer.
• CNC(=O)OC(C)CN1c2ccccc2Sc2ccccc21 (configuration not stated) = 98% (active)
• CN(C)CCC(/C=C/c1ccccc1)=N\Nc1ccc(Cl)cc1Cl = 90% (active)
• COc1cc(/C=C(\C#N)c2ccc([N+](=O)[O-])cc2)ccc1O = 50% (inactive)

Dear colleague, could you please provide growth inhibition for the compounds listed below?
1. O=C(/C=C/C(=O)c1ccc(O)cc1)c1ccccc1
2. O=[N+]([O-])c1ccc(Cc2nc3ccccc3s2)cc1
3. COc1ccc2c(c1)CCc1c-2ccc(C)c1CCC(=O)O
4. COC(=O)c1c(C(N)=O)c(C)n(NC(=O)c2ccccc2)c1C
5. CC(C)CCCCCCCCCCCCC(=O)NCC(=O)NC1C(C)OC(Nc2ncnc3nc[nH]c23)C(O)C1O (configuration not stated)
6. O=C(Nc1ccc(S(=O)(=O)NC2CCCCC2)cc1)OCc1ccccc1

["87% (active)", "97% (active)", "99% (active)", "3% (inactive)", "23% (inactive)", "43% (inactive)"]

Dear colleague, could you please provide growth inhibition for the compounds listed below?
1. CN(CC(=O)O)c1ncc2c(n1)-c1ccccc1OC2
2. CCOC(=O)/C(=C/c1ccc2ccccc2c1)P(=O)(OCC)OCC
3. c1ccc(CSc2nnc3c4ccccc4c4ccccc4c3n2)cc1
4. O=S(=O)(O)c1ccc(O)c2cc(Nc3ccccc3)ccc12
5. O=C(O)CSc1nc(-c2ccccc2)c(-c2ccccc2)n1-c1ccccn1
6. CCOC(=O)CNC(=O)Sc1ccc(C(C)(C)C)cc1C

1. 15% (inactive)
2. 9% (inactive)
3. 13% (inactive)
4. -25% (inactive)
5. -9% (inactive)
6. 92% (active)

----------
experiment: NCI Yeast Anticancer Drug Screen. Data for the bub3 strain (AID 167); conditions: S. cerevisiae bub3 mutant strain, at 50.0 µM, active compounds read high
Compounds without any hit were thinned out: in the full panel of roughly 79,000, 15% have a hit.
measuredParameter: growth inhibition (%)
Numbers only, in %.

Please review the entries below; each comes with its answer.
• NC(=Nc1cc2ccccc2c2ccccc12)/N=C(/N)Nc1cc2ccccc2c2ccccc12 = 60
• CCOC(=O)N1CCN(c2cc(C)nc3cc(OC)ccc23)CC1 = 59.5

Give its growth inhibition value. Item: CCOC(=O)NC(NC(=O)OCC)C(=O)Nc1cccc2c(OC(=O)C(NC(=O)OCC)NC(=O)OCC)c(N=Nc3ccc(S(=O)(=O)Nc4nccs4)cc3)cc(N=Nc3ccc(S(=O)(=O)Nc4nccs4)cc3)c12 (tested in a mixture with another compound) 61.8

----------
assay: NCI Yeast Anticancer Drug Screen. Data for the rad50 strain (AID 155);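 note: 0% = growth of vehicle-only cultures of the same strain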; details: S. cerevisiae rad50 strain growth inhibition; at 5.0 µM (retest, dose inferred, filed as 0.5); active compounds read high
The panel holds about 79,000 compounds, 15% with a hit somewhere; the sample as a whole holds those more often.
measuredParameter: growth inhibition (%)
Numbers only, in %.

Please review the entries below; each comes with its answer.
* NC(=S)N/N=C\c1nccc2c(C(F)(F)C(F)(F)C(F)(F)F)cccc12 | 26
* CC1C=C(COC(=O)Nc2ccccc2)ON1c1ccccc1 (centres undefined) | -2
* O=C(C[n+]1ccc2ccccc2c1)c1ccc(-c2ccccc2)cc1 | -5

Dear colleague, could you please provide growth inhibition for the compounds listed below?
1. C[n+]1c(-c2ccc(/C=N/NC(=O)C(=O)N/N=C/c3ccc(-c4cn5ccccc5[n+]4C)cc3)cc2)cn2ccccc21
2. COc1ccc(/C=C/c2c[n+]([O-])ccc2[N+](=O)[O-])cc1
3. N#CSCc1c(Cl)cccc1Cl
4. CCN(CC)CCNc1ccc2nnn3c4ccc([N+](=O)[O-])cc4c(=O)c1c23
5. c1cc[c]([Sn]([S]c2cccc3cccnc23)([S]c2cccc3cccnc23)[c]2ccccc2)cc1

1. 59
2. 14
3. 57
4. 16
5. 98

Dear colleague, could you please provide growth inhibition for the compounds listed below?
1. CCCCCCCCC(C)c1ccccc1O (centres undefined)
2. O=C(NCCN1CCN2Cc3[nH]c4ccccc4c3CC2C1)c1ccc(Cl)cc1 (centres undefined)
3. CC(C)SCC1CO1 (centres undefined)
4. Cc1ccc(S(=O)(=O)Nc2ccc3c(c2)C(=O)c2ccccc2-3)cc1
5. CCOC(=O)NC(NC(=O)OCC)C(=O)Nc1cccc2c(OC(=O)C(NC(=O)OCC)NC(=O)OCC)c(N=Nc3ccc(S(=O)(=O)Nc4nccs4)cc3)cc(N=Nc3ccc(S(=O)(=O)Nc4nccs4)cc3)c12 (tested in a mixture with another compound)

1. -150
2. 9
3. -1
4. 14
5. 94

Dear colleague, could you please provide growth inhibition for the compounds listed below?
1. O=C(CSC1=NNC2(C(=O)N1)c1ccccc1-c1ccccc12)NC(=S)Nc1ccccc1
2. C/C(=N\NC(=S)N(C)CCN(C)C(=S)N/N=C(\C)c1ccccn1)c1ccccn1
3. CNC(=O)N/N=C/c1ccc([N+](=O)[O-])o1
4. C/C=C(\C)C(=O)OC1C(C)C2(O)C(C=C(CO)CC3(O)C(=O)C(C)=CC32)C2C(C)(C)C12OC(=O)CCCCCCCCC (centres undefined)
5. Nc1nc(N)c2cc(S(=O)c3ccc4ccccc4c3)ccc2n1 (centres undefined)
6. O=c1cccccc1[O-].O=c1cccccc1[O-].O=c1cccccc1[O-].[Sm+3]

-3
-8
12
0
4
33

----------
test: NCI Yeast Anticancer Drug Screen. Data for the sgs1 mgt1 strain (AID 161);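 note: 0% = growth of cultures given vehicle only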; details: S. cerevisiae sgs1 mgt1 strain, at 5.0 µM (retest, dose inferred, filed as 0.5), active compounds read high
Compounds without any hit were thinned out: in the full panel of roughly 79,000, 15% have a hit. The source made the active and inactive calls. No stated cut-off is given here; in the data, active means growth inhibition above about 70%; inactive means the rest.
measuredParameter: growth inhibition

* O=C1NC(=O)N(c2ccc([N+](=O)[O-])cc2)C1=O | 3% (inactive)
* COC(=O)C12Oc3ccc(-c4ccc5c(c4O)C(O)=C4C(=O)CC(C)C(O)C4(C(=O)OC)O5)c(O)c3C(O)=C1C(=O)CC(C)C2O (stereo unspecified) | 37% (inactive)
* CCCCCC(CCCCC)C(=O)O | -20% (inactive)
* Cc1c(C2CC(=O)NC2=O)c2ccccc2n1C (stereo unspecified) | -1% (inactive)
* Nc1cc2c(c[n+](CCCCCCCCCC[n+]3cc4c5ccccc5c(N)cc4c4ccccc43)c3ccccc23)c2ccccc12 | 56% (inactive)

Dear colleague, could you please provide growth inhibition for the compounds listed below?
1. N#CC(C#N)=C1CCC(CC2CCCCC2)CC1 (stereo unspecified)
2. CC([N+](=O)[O-])C1(O)C(=O)c2cccc3cccc1c23 (stereo unspecified)
3. CC(=O)N1c2ccccc2C2=NN=C(N(C)C)SC21 (stereo unspecified)

1. -60% (inactive)
2. 11% (inactive)
3. 0% (inactive)

Dear colleague, could you please provide growth inhibition for the compounds listed below?
1. O=[N+]([O-])c1cccc2nc3ccccc3c(NCCO)c12
2. COc1ccc2c(c1)CCC1=C2C=C[P+]1(C)C
3. O=C(CC1(O)C(=O)Nc2c(Cl)ccc(Cl)c21)c1ccc(Cl)cc1Cl (stereo unspecified)
4. CCCCN(CCCC)CCCCNc1ccc(C)c2sc3ccccc3c(=O)c12
5. CCOC(=O)CNC(=O)Sc1ccc(C(C)(C)C)cc1C

1: 82% (active); 2: -1% (inactive); 3: 18% (inactive); 4: 83% (active); 5: 17% (inactive)

Dear colleague, could you please provide growth inhibition for the compounds listed below?
1. Cc1nc2sc3c(c2c2nnnn12)CCCC3
2. CCN(CC)CCOC(=O)Cc1cccc2c(=O)cc(-c3cccs3)oc12
3. O=C(Nc1ccc(S(=O)(=O)NC2CCCCC2)cc1)OCc1ccccc1

["24% (inactive)", "14% (inactive)", "100% (active)"]
